Where do these numbers come from? They come from patent US20240043417A1.

Target: SARS-CoV-2 3CLpro (Severe acute respiratory syndrome coronavirus 2 (2019-nCoV) (SARS-CoV-2), UniProt P0DTD1)
Assay: SARS-CoV-2 3CLpro enzyme inhibition assay
Type: biochemical
Conditions: read-out: Enzyme IC50 Data; SARS-CoV-2 3CLpro; 10 minutes pre-incubation of enzyme with compound
PROPERTY_LABEL: IC50

>>> endpoint_value("CCCO[C@@H]1C[C@@H](C(=O)N[C@@H](C[C@@H]2CCNC2=O)C(=O)c2nc3ccccc3s2)N(C(=O)[C@@H](NC(=O)OC(C)(C)C)C(C)(C)C)C1 [drawing 100]")
"0.1 to 5 µM"

---

Biological target: SARS-CoV-2 3CLpro (Severe acute respiratory syndrome coronavirus 2 (2019-nCoV) (SARS-CoV-2))
Assay: SARS-CoV-2 3CLpro enzyme inhibition assay
Format: biochemical
Settings: SARS-CoV-2 3CLpro; 10 minutes pre-incubation of enzyme with compound; read-out: Enzyme IC50 Data
PROPERTY_LABEL: IC50

>>> endpoint_value("CN(C)[C@@H]1C[C@@H](C(=O)N[C@@H](C[C@@H]2CCNC2=O)C(=O)c2nc(-c3ccccc3)cs2)N(C(=O)[C@@H](NC(=O)NC(C)(C)C)C(C)(C)C)C1")
"0.1 to 5 µM"
>>> endpoint_value("CCCO[C@@H]1C[C@@H](C(=O)N[C@@H](C[C@@H]2CCNC2=O)C(=O)c2nc(-c3ccccc3)cs2)N(C(=O)[C@@H](NC(=O)NC(C)(C)C)C(C)(C)C)C1")
"> 100 µM"
>>> endpoint_value("CC(C)(C)NC(=O)N[C@H](C(=O)N1C[C@H](N2CCOCC2)C[C@H]1C(=O)N[C@@H](C[C@H]1CCNC1=O)C(=O)c1nc2ccccc2s1)C(C)(C)C")
"0.1 to 5 µM"

---

Target: SARS-CoV-2 3CLpro (Severe acute respiratory syndrome coronavirus 2 (2019-nCoV) (SARS-CoV-2), UniProt P0DTD1)
Experiment: SARS-CoV-2 3CLpro enzyme inhibition assay
Type: biochemical
Conditions: SARS-CoV-2 3CLpro; 10 minutes pre-incubation of enzyme with compound; read-out: Enzyme IC50 Data
pIC50: −log10 of the molar value.
PROPERTY_LABEL: pIC50

>>> endpoint_value("CCN(CC)[C@@H]1C[C@@H](C(=O)N[C@@H](C[C@@H]2CCNC2=O)C(=O)c2nc(-c3ccccc3)cs2)N(C(=O)[C@@H](NC(=O)NC(C)(C)C)C(C)(C)C)C1")
"5.30 to 7.00"
>>> endpoint_value("CC(C)(C)NC(=O)N[C@H](C(=O)N1C[C@H]2[C@@H]([C@H]1C(=O)N[C@@H](C[C@@H]1CCNC1=O)C(=O)c1nc(-c3ccccc3)co1)C2(C)C)C(C)(C)C")
"4.00 to 4.30"
>>> endpoint_value("CC(C)(C)[C@H](NC(=O)NCc1ccncc1)C(=O)N1C[C@H]2[C@@H]([C@H]1C(=O)N[C@@H](C[C@@H]1CCNC1=O)C(=O)c1nc(-c3ccccc3)cs1)C2(C)C")
"5.30 to 7.00"
>>> endpoint_value("CCCN(CCC)[C@@H]1C[C@@H](C(=O)NC(C#N)C[C@@H]2CCNC2=O)N(C(=O)[C@@H](NC(=O)OC(C)(C)C)C(C)(C)C)C1 (stereo partly drawn)")
"< 4.00"
>>> endpoint_value("CCCN(CCC)[C@@H]1C[C@@H](C(=O)N[C@@H](C[C@H]2CCNC2=O)C(=O)c2nc(-c3ccccc3)cs2)N(C(=O)[C@@H](NC(=O)NC(C)(C)C)C(C)(C)C)C1")
"5.30 to 7.00"
>>> endpoint_value("CCCN(CCC)[C@@H]1C[C@@H](C(=O)N[C@@H](C[C@H]2CCNC2=O)C(=O)c2nc3ccccc3s2)N(C(=O)[C@@H](NC(=O)NC(C)(C)C)C(C)(C)C)C1")
"< 4.00"

---

# IC50 values compiled below
Biological target: SARS-CoV-2 3CLpro (Severe acute respiratory syndrome coronavirus 2 (2019-nCoV) (SARS-CoV-2), UniProt P0DTD1)
Experiment: SARS-CoV-2 3CLpro enzyme inhibition assay
Assay type: biochemical
PROPERTY_LABEL: IC50

>>> endpoint_value("CCCO[C@@H]1C[C@@H](C(=O)NC(C#N)C[C@@H]2CCNC2=O)N(C(=O)[C@@H](NC(=O)NC(C)(C)C)C(C)(C)C)C1 (stereo partly drawn)")
"50 to 100 µM"
>>> endpoint_value("CCCO[C@@H]1C[C@@H](C(=O)N[C@@H](C[C@@H]2CCNC2=O)C(=O)c2nc3ccccc3s2)N(C(=O)[C@@H](NC(=O)NC(C)(C)C)C(C)(C)C)C1")
"0.1 to 5 µM"
>>> endpoint_value("CC(C)(C)NC(=O)N[C@H](C(=O)N1C[C@H]2[C@@H]([C@H]1C(=O)N[C@@H](C[C@@H]1CCNC1=O)C(=O)c1nc(-c3ccccc3)cs1)C2(C)C)C(C)(C)C")
"5 to 50 µM"
>>> endpoint_value("CCCN(CCC)[C@@H]1C[C@@H](C(=O)NC(C#N)C[C@@H]2CCNC2=O)N(C(=O)[C@@H](NC(=O)C(F)(F)F)C(C)(C)C)C1 (stereo partly drawn)")
"> 100 µM"
>>> endpoint_value("CCCO[C@@H]1C[C@@H](C(=O)N[C@@H](C[C@@H]2CCNC2=O)C(=O)c2nc3ccccc3s2)N(C(=O)[C@@H](NC(=O)OC(C)(C)C)C(C)(C)C)C1 [drawing 99]")
"0.1 to 5 µM"
>>> endpoint_value("CCCO[C@@H]1C[C@@H](C(=O)N[C@@H](CC2CCNC2=O)C(=O)c2nc3ccccc3s2)N(C(=O)C(NC(=O)NC(C)(C)C)C(C)C)C1 (stereo partly drawn)")
"0.1 to 5 µM"
>>> endpoint_value("CC(C)(C)NC(=O)N[C@H](C(=O)N1C[C@H](N2CCCC2)C[C@H]1C(=O)N[C@@H](C[C@H]1CCNC1=O)C(=O)c1nc2ccccc2s1)C(C)(C)C")
"5 to 50 µM"
>>> endpoint_value("CC(C)(C)NC(=O)N[C@H](C(=O)N1C[C@H]2[C@@H]([C@H]1C(=O)N[C@@H](C[C@@H]1CCNC1=O)C(=O)c1nc3ccccc3s1)C2(C)C)C(C)(C)C")
"50 to 100 µM"
>>> endpoint_value("CCCC(=O)N[C@@H]1C[C@@H](C(=O)N[C@@H](C[C@H]2CCNC2=O)C(=O)c2nc3ccccc3s2)N(C(=O)[C@@H](NC(=O)NC(C)(C)C)C(C)(C)C)C1")
"0.1 to 5 µM"
>>> endpoint_value("CC(C)(C)NC(=O)N[C@H](C(=O)N1C[C@H]2[C@@H]([C@H]1C(=O)N[C@@H](C[C@@H]1CCNC1=O)C(=O)C(=O)NCc1ccccc1)C2(C)C)C(C)(C)C")
"50 to 100 µM"
>>> endpoint_value("CCCN(CCC)[C@@H]1C[C@@H](C(=O)N[C@@H](C[C@H]2CCNC2=O)C(=O)c2nc3ccccc3s2)N(C(=O)[C@@H](NC(=O)OC(C)(C)C)C(C)(C)C)C1")
"0.1 to 5 µM"
>>> endpoint_value("CCCC(=O)N[C@@H]1C[C@@H](C(=O)N[C@@H](C[C@H]2CCNC2=O)C(=O)c2nc3ccccc3s2)N(C(=O)[C@@H](NC(=O)OC(C)(C)C)C(C)(C)C)C1")
"0.1 to 5 µM"
